Provenance of the data: paper PMC9995496

Test system: PRKACA-PRKAR2A interaction (SmBiT-PRKACA / LgBiT-PRKAR2A), protein kinase A
Design: NanoLuc complementation counter-screen in cell extract, PRKACA with PRKAR2A, loss of luminescence, detects NanoLuc interference
settings: counter-screen for NanoLuc interference; 0.5 h, 20 µM; inhibitor
Below: a set of entries, each annotated with reported Inh (PKA).
Record the value in %, omitting the unit from your answer.

Reference set, count: 2
Cc1c(NC(=O)c2ccc(C(C)(C)C)cc2)cccc1-c1cn(C)c(=O)c(Nc2ccc(C(=O)N3CCOCC3)cc2)n1 [UM0141530:01, CGI-1746]: 10.06
Cc1ccc(-n2nc(C(C)(C)C)cc2NC(=O)Nc2ccc(OCCN3CCOCC3)c3ccccc23)cc1 [UM0127947:02, BIRB 796 (Doramapimod)]: 10.73

Problem: For the compound Cc1cn(CCN2CCN(c3ccccc3-c3cc(C#N)cc(C(=O)NCCCN4CCCC4)c3)CC2)c2ccccc12 [UM0142746:01, LLY507] , what Inh (PKA) is on record?
Solution: 10.14

###

experimental target: MeCP2-TBL1 interaction (MeCP2-SmBiT / TBL1-LgBiT) (Mus musculus, UniProt Q9QXE7)
Construct: expressed in transfected cells; crude lysate used as a cell-free assay
Sequence (Q9QXE7 166-527): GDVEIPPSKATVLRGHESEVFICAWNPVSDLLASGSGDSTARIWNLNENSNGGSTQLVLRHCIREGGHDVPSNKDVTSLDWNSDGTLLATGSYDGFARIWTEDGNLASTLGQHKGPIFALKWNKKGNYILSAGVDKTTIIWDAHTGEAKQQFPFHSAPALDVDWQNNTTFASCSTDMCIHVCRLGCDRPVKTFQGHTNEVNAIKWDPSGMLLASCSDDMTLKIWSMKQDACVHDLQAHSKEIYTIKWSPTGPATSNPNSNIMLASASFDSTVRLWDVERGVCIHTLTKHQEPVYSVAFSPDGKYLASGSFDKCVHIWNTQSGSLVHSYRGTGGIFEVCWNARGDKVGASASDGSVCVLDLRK
assay text: MeCP2-TBL1 NanoLuc luciferase complementation assay (cell-free, extracts of transfected HEK293 cells);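 also: each compound tested at 20 µM final concentration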
Assay type: binding, human
settings: primary screen of Asinex library, single well per compound
Mark True only for Inhibition percent values smaller than 1; exact matches and larger values are False.

Problem: Does the reported Inhibition percent of CN(Cc1ccc(F)cc1)[C@@H]1[C@@H](O)[C@H](Oc2ccccc2F)C[C@H]1NC(=O)CC(C)(C)CC(=O)O [BDG_34135530] stay below 1?
Solution: False

Problem: Identify whether the molecule CC(C)(NC(=O)COc1ccccc1)C(=O)N1CCC(Cc2cccc3ncccc23)CC1 [BDH_32354908] records Inhibition percent below 1.
Solution: True

Problem: Identify whether the molecule CC(=O)N[C@@]12CN(C)CC[C@@H]1[C@@H](c1ccccc1)N(C(=O)c1cccc(-n3nc(C)cc3C)c1)C2 [BDH_32365020] records Inhibition percent below 1.
Solution: True

Problem: Field: below-cutoff. Rule: recorded Inhibition percent strictly less than 1. Subject: C[C@@]12C[C@H](c3ccccc3)N(C(=O)CCCn3cccn3)[C@@H]1CCC[C@@H](O)[C@@H]2O [BDH_33903800]
Solution: True

Problem: Quick check: Inhibition percent of C[C@]12C[C@@H](Cc3ccccc3)N(CC(=O)NCc3ccccc3Cl)[C@H]1CCCC(=O)N2 [BDH_33626431] under 1?
Solution: False

Problem: State whether 1 exceeds Inhibition percent recorded for COc1cccc2c1OC(C)(C)[C@@H]1C[C@H]3CN(CC(=O)Nc4ccc(C(C)=O)cc4)CC[C@H]3O[C@@H]21 [BDG_51129062] .
Solution: False
